FYI, the data here is from patent US4172896A.

Experiment: in vivo
Conditions: mouse, oral, mice, mortality observed for 7 days

- COMPOUND: "NS(=O)(=O)Cc1noc2ccccc12"
  READING_UNIT: "mg/kg"
  LD50 at 168 h: 1830
- COMPOUND: "NS(=O)(=O)Cc1noc2ccc(F)cc12"
  READING_UNIT: "mg/kg"
  LD50 at 168 h: 1260
- COMPOUND: "NC(=O)N1c2ccccc2C=Cc2ccccc21 [Carbamazepine, 5H-dibenz[b,f]azepine-5-carboxamide, reference compound]"
  READING_UNIT: "mg/kg"
  LD50 at 168 h: 1700

###

Test: in vivo
Conditions: mouse, po, read-out: Safety index
READOUT_LABEL: selectivity ratio

- COMPOUND: "NS(=O)(=O)Cc1noc2ccccc12"
  READOUT_LABEL: "selectivity ratio"
  OBSERVED: 93.3
- COMPOUND: "NC(=O)N1c2ccccc2C=Cc2ccccc21 [Carbamazepine, 5H-dibenz[b,f]azepine-5-carboxamide, reference compound]"
  READOUT_LABEL: "selectivity ratio"
  OBSERVED: 129

###

Test: Effect on coordinated motor movements in mice (rotarod)
Details: mouse, in vivo, po
Experimental: Mice trained to continue coordinated motor movements for 100 seconds or more on a rotarod apparatus (2.5 cm in diameter at 11 RPM) were used [J. Amer. Pharm. […] Impairment of coordinated motor movements was defined as the inability of the animals to retain on the rotarod for a 100 second test period. […] Median neurotoxic dose (NTD50), i.e. the does which causes fall from rotarod in 50% of animals, was calculated by the method of Litchfield and Wilcoxon.
READOUT_LABEL: selectivity ratio

- COMPOUND: "NS(=O)(=O)Cc1noc2ccc(F)cc12"
  OBSERVED: 10.6
- COMPOUND: "NC(=O)N1c2ccccc2C=Cc2ccccc21 [Carbamazepine, 5H-dibenz[b,f]azepine-5-carboxamide, reference compound]"
  OBSERVED: 10.7
- COMPOUND: "NS(=O)(=O)Cc1nc2ccccc2o1"
  OBSERVED: 14
- COMPOUND: "NS(=O)(=O)Cc1noc2ccccc12"
  OBSERVED: 14.9
